Source: ChEMBL document CHEMBL1961873

Please go through the items and note down their inhibition.
- subject_of_test: Fibroblast growth factor receptor 2 (Homo sapiens)
- reported_conditions: at 0.1 µM;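 note: values are mean percent inhibition of FGFR2 kinase, measured within the GSK Published Kinase Inhibitor Set (PKIS) screening panel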
One number for each entry, in %.

Hi team, please reply with inhibition for each item in this list.
1. CCCN1CCC=C(c2ccc(Nc3nc(Nc4ccccc4C(N)=O)c4cc[nH]c4n3)c(C)c2)C1
2. COc1ccc(-c2ccncc2)cc1C(N)=O
3. COc1ccc(-c2nn3ncccc3c2-c2ccnc(Nc3ccc(Cl)c(C(F)(F)F)c3)n2)cc1
4. COc1cc(C=NNc2ncnc3c2cnn3-c2ccccc2)ccc1O
5. CC1=C(C(=O)Nc2ccc3[nH]ncc3c2)C(c2ccc3ccccc3c2)CC(=O)N1 (centres undefined)
6. O=C1NC(=O)C(c2ccccc2Cl)=C1Nc1cccc(O)c1
7. Cc1cc(O)cc(C)c1/C=C/c1cncc(-c2nn[nH]n2)c1

1. 6.37
2. 7.42
3. 1.72
4. 3
5. 5.6
6. 3.39
7. 1.54

Hi team, please reply with inhibition for each item in this list.
1. O=C(Nc1n[nH]c2nc(-c3ccco3)c(Br)cc12)C1CC1
2. COc1cc2c(cc1Nc1nc(N3CCc4ccccc43)c3cc[nH]c3n1)N(C(=O)CN(C)C)CC2

[2.01, 0.56]
